test: Novel Modifiers of Survival Motor Neuron (SMN) Protein: Gene Identification via Genome-wide siRNA Screen; settings: HEK293T SMN2-luciferase reporter, siRNA knockdown, 72 h; actives lie on both sides;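 also: luminescence tracks full-length SMN protein made from the SMN2 reporter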
Out of some 31,000 sequences screened, about 1,400 (4.5%) were called active. Only a selection was taken, and actives are over-represented in it overall.
Param label: returns Condition met when median seed-adjusted z-score < 0.1, returns Condition not met otherwise, including exact equality.

>>> print(df.to_string())
                          sequence_text  qualitative_label
0    UCACAGAGCCUAUUAUUUUTT against PRKY  Condition not met
1    CUGUUUGGUUUAUUCGAUUTT against ZW10  Condition not met
2  GAGAAACCUUUAUUCGAUATT against GLULD1      Condition met
3   CCAUAACCUUAUUGACGCATT against LRFN4      Condition met
4    GCACGACGACAAUAUCAUUTT against PEX3  Condition not met
5   CUUGCACUCCUGUCCAUAATT against AP3B1  Condition not met

---

assay: Novel Modifiers of Survival Motor Neuron (SMN) Protein: Gene Identification via Genome-wide siRNA Screen; details: HEK293T SMN2-luciferase reporter, siRNA knockdown, 72 h; actives lie on both sides;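 also: luminescence tracks full-length SMN protein made from the SMN2 reporter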
Among all 31,000 sequences or so, about 1,400 (4.5%) were called active. This is one part of a sample in which actives are shown more often than they occur.
Catalogue of median seed-adjusted z-score readings, one per entry.
endpoint name: median seed-adjusted z-score

>>> print(df.to_string())
                             sequence_text                 endpoint_name  quantitative_result
 0  CAGUGGAUCAAAUAACGCATT against ADAMTS20  median seed-adjusted z-score                 1.44
 1     GAUGCGAUAUUAAUGGGAATT against SMYD4  median seed-adjusted z-score                0.272
 2     AGAUGUGACUGGCUGGUCATT against LCN12  median seed-adjusted z-score                0.124
 3     CAAGAUAUAUAUACGCCUATT against NPY1R  median seed-adjusted z-score                 0.76
 4    UCAACUGACUCAUACCUGUTT against KCNMB1  median seed-adjusted z-score               -0.465
 5      GAAUCUACCUUGCUGCUCATT against G6PC  median seed-adjusted z-score               -0.628
 6   CAGAGUAUGUAAAUAGACATT against CAPRIN1  median seed-adjusted z-score                 1.36
 7     GGAAUUUCGGCACUCAGAATT against CHIT1  median seed-adjusted z-score               -0.578
 8    AGGCAAAGACGGAACAACATT against TRIM69  median seed-adjusted z-score                0.214
 9    GAGCUAUAGUAAUUGCUCUTT against MIF4GD  median seed-adjusted z-score                0.373
10     GUUUGUGACUGUAACCAUUTT against CTBP1  median seed-adjusted z-score                0.105
11    UCGAUAUUCUAAGAUCACATT against UBE2D3  median seed-adjusted z-score                 1.62
12     GGGUAAACGAUUCCAGCAATT against N-PAC  median seed-adjusted z-score               0.0542
13     GCGAAAACAUGGAUGUUCUTT against HERC2  median seed-adjusted z-score                 0.98
14      GGAUUACAGCAGGUGCAGATT against MED8  median seed-adjusted z-score                -1.61
15    CGAUUUGAAGGUCCAUAUATT against DNAJC2  median seed-adjusted z-score              -0.0357
16     GUAUCUAAGAGAUAUGGAATT against ORC5L  median seed-adjusted z-score               -0.126
17     GGACAAUCUUAUUCCUAUUTT against CFHR4  median seed-adjusted z-score              -0.0972
18     GGAGAUUCACGAGCUGCGATT against EGFL8  median seed-adjusted z-score                0.365
19      CGCUGAUACUAACAAUUGATT against AOX1  median seed-adjusted z-score              -0.0717
20     GAUGAUUUUUGGAGACCUATT against TRPV5  median seed-adjusted z-score               0.0879
21     GAGUGAUAUGGAUAGUGAATT against TTC18  median seed-adjusted z-score                -1.15
22    GCCCGAUGCUUUCCACAUUTT against SLC5A9  median seed-adjusted z-score                 0.15
23  GUUUCAUCGUAUAUCAAUATT against HSD17B13  median seed-adjusted z-score               -0.329
24     GCUCUUCUAGACAUCGAUATT against NUBP1  median seed-adjusted z-score              -0.0975
